Attribute: Fold/wt
- Test System: Bcl-2
- Sequence (chain, as listed by the source): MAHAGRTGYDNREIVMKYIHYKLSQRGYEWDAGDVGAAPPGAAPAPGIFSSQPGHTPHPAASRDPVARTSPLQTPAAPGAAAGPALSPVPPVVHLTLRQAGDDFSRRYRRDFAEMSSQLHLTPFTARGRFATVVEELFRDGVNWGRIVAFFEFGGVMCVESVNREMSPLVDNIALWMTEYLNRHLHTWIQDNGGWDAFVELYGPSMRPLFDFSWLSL
- Procedure Text: competition phage ELISA

Binder	Fold/wt
NLWAAQRAGRELRRMSDEFVDSFKKG (M13 phage display: FLAG-26mer-GGGT-g3(249-406)) [Bad BH3 Y8A, phage-displayed]	1 fold

Briefly, Fold/wt measured for NLWAAQRYGRELRRMSDEFVDSFKKE (M13 phage display: FLAG-26mer-GGGT-g3(249-406)) [Bad BH3 G26E, phage-displayed] : 1 fold
